# reported.conditions: in acetic acid, 283.15 K
experimental.endpoint: solubility (mole fraction)
Give the figure by itself; no unit, no explanation.

Fill in the blank: the reported solubility (mole fraction) of Cn1cc([N+](=O)[O-])cn1 is ____. 0.000218

* * *

# reported.conditions: in methyl acetate, 313.15 K
experimental.endpoint: solubility (mole fraction)

Fill in the blank: the reported solubility (mole fraction) of Cn1cc([N+](=O)[O-])cn1 is ____. 0.0401

* * *

# reported.conditions: in methyl acetate, 288.15 K
experimental.endpoint: solubility (mole fraction)
Give the figure by itself; no unit, no explanation.

Fill in the blank: the reported solubility (mole fraction) of Cn1cc([N+](=O)[O-])cn1 is ____. 0.0185
